# credit: ChEMBL document CHEMBL1240428

// values below are reported MIC
System: Aspergillus flavus
protocol: Antifungal activity against Aspergillus flavus
Assay type: functional

Worked cases, MIC given:
molecule: O=C(Cn1ncc2cc([N+](=O)[O-])ccc21)N/N=C/c1cccc(Br)c1
MIC: 18 µg/mL
--
molecule: CN(C)c1ccc(C2SCC(=O)N2NC(=O)Cn2ncc3cc([N+](=O)[O-])ccc32)cc1 (centres undefined)
MIC: 22 µg/mL
--
molecule: O=C(Cn1ncc2cc([N+](=O)[O-])ccc21)N/N=C/c1ccccc1
MIC: 20 µg/mL

// next item, MIC requested
Could you tell me which MIC is on file for COc1ccc(/C=N/NC(=O)Cn2ncc3cc([N+](=O)[O-])ccc32)cc1 ?
22 µg/mL
